- system_name: human GLP-1 receptor (GLP-1R), expressed on CHO-K1 cells (human, UniProt P43220 24-463)
- protocol_notes: cell-based or functional assay
Numbered stars: 1 amine (or outer) side, 2 acyl side, 3 side chain; on linkers, the order of the positions; unused ones are H or OH. Square brackets hold non-standard residues; d marks the D form. Side chains are listed from the residue outwards. Ends that are not written are not given here. * marks the point of attachment. C18 = C18 fatty acid (C16-C22 fatty acids conjugated via γGlu/8-amino-3,6-dioxaoctanoic acid spacers); methoxinine = methoxinine (m*), COCC[C@H](N[*:1])C(=O)[*:2]; Biotin = O=C1N[C@H]2[C@H](CS[C@H]2CCCCC(=O)*)N1; γGlu = O=C(O)[C@H](CCC(=O)[*:2])N[*:1]; AEEA = NCCOCCOCC(=O)O; Aib = CC(C)(N)C(=O)O
assay_readout: Relative % to native ligand (%)
Response body: numeric value in %, unit text excluded.

Ask: Report Relative % to native ligand for Y[Aib]QGTFTSDYSK([AEEA-AEEA-γGlu-C18])LLDYMMQ[Aib]DFVQYLLEGGPSSGAPPPSK-NH2 (not fully specified (residue 40)) [SEQ ID NO. 92] please.
Result: 8

Ask: Entry Y[Aib]QGTFTSDYSK([AEEA-AEEA-γGlu-C18])LLDYMMQ[Aib]DFVQYLLEGGPSSGAPPPS-NH2 [SEQ ID NO. 85] : reported Relative % to native ligand = ?
Result: 12

Ask: Tell me the measured Relative % to native ligand of Y[Aib]QGTFTSDYSK([AEEA-AEEA-γGlu-C18])YLDYMMQRDFVK(Biotin)WLLEGGPSSGAPPPS (ends and bridges not checked) [SEQ ID NO. 97] , please.
Result: 106

Ask: Form field: reported Relative % to native ligand of Y[Aib]QGTFTSDYSK([AEEA-AEEA-γGlu-C18])LLDYMMQ[Aib]DFVQWLLEGGPSSGAPPPS-NH2 [SEQ ID NO. 84]
Result: 71

Ask: I have this binder here, Y[Aib]QGTFTSDYSK([AEEA-AEEA-γGlu-C18])LLDYMMQRDFVQWLLEGGPSSGAPPPSK(Biotin)-NH2 [SEQ ID NO. 90] , and I need its recorded Relative % to native ligand.
Result: 50

Ask: Please report the recorded Relative % to native ligand for Y[Aib]QGTFTSDYSK([AEEA-AEEA-γGlu-C18])LLDQQAQRDFVQWLLEGGPSSGAPPPS-NH2 [SEQ ID NO. 95] .
Result: 1630

Ask: Record request: Relative % to native ligand value, item Y[Aib]QGTFTSDYSK([AEEA-AEEA-γGlu-C18])LLDYMMQKDFVQWLLEGGPSSGAPPPS-NH2 (not fully specified (residue 20); printed as YAibQGT FTSDY SK*LLD YMMQB* DFVQW LLEGG PSSGA PPPS) [SEQ ID NO. 88]
Result: 16

Ask: GET /values?readout=Relative % to native ligand&item= Y[Aib]QGTFTSDYSK([AEEA-AEEA-γGlu-C18])LLDY[methoxinine][methoxinine]QRDFVQWLLEGGPSSGAPPPS-NH2 [SEQ ID NO. 96]
Result: 181

Ask: May I ask what Relative % to native ligand has been recorded for Y[Aib]QGTFTSDYSK([AEEA-AEEA-γGlu-C18])LLDKMMQRDFVQWLLEGGPSSGAPPPS-NH2 (not fully specified (residue 16); printed as YAibQGT FTSDY SK*LLD B*MMQR DFVQW LLEGG PSSGA PPPS) [SEQ ID NO. 86] ?
Result: 90

Ask: Look at this binder and give its reported Relative % to native ligand. Y[Aib]QGTFTSDYSK([AEEA-AEEA-γGlu-C18])LLDYMMQRDFVKWLLEGGPSSGAPPPS-NH2 (not fully specified (residue 24); printed as YAibQGT FTSDY SK*LLD YMMQR DFVB*W LLEGG PSSGA PPPS) [SEQ ID NO. 89]
Result: 38
